System: mature miR-18a
TEST DESCRIPTION: RT-qPCR of mature miRNA levels in DU145 cells
Format: cell-based
STATED CONDITIONS: Homo sapiens, DU-145, read-out: IC50 for decrease of mature miRNA
pIC50: −log10 of the molar value.

# COMPOUND, pIC50
measured = [
    ("CN1CCN(c2ccc(-c3ccc4nc(-c5cc(C(C)(C)C)c(OCCCC(=O)NCCCN=[N+]=[N-])c(C(C)(C)C)c5)[nH]c4c3)cc2)CC1 [Compound 4]", "~5.00"),
]

----------
ASSAYED TARGET: RNA3 (G bulge of the miR-17 and miR-20a precursors)
TEST DESCRIPTION: Fluorescence-based binding affinity measurement
pKd: −log10 of the molar value.

# COMPOUND, pKd
data = [
    ("CN1CCN(c2ccc(-c3ccc4nc(-c5cc(C(C)(C)C)c(OCCCC(=O)NCCCN=[N+]=[N-])c(C(C)(C)C)c5)[nH]c4c3)cc2)CC1 [Compound 4]", 4.40),
]
